- Study System: human α2a receptor (Homo sapiens)
- Sequence (P08913 1-465): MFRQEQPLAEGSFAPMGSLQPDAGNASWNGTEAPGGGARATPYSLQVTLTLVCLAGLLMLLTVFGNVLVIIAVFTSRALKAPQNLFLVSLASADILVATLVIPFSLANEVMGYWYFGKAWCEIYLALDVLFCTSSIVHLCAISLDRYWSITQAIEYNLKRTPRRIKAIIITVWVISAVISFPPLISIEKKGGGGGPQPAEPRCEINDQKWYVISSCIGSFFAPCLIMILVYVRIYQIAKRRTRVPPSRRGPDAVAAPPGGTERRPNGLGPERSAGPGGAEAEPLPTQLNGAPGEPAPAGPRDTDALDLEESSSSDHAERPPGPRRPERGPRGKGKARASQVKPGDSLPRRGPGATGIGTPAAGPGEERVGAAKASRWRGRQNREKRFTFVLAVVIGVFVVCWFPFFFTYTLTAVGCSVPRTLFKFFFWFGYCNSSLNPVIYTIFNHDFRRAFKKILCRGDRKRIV
Where a name gives a salt, the structure may show the parent alone.
Endpoint Label: Ki (µM)

I. COCC1=C(C(=O)OC)[C@H](c2ccc(F)c(F)c2)N(C(=O)NCCCN2CCC(c3cccc[n+]3[O-])CC2)C(=O)N1 [Compound 2, hydrochloride]
II. O=C1OCC2=C1C(c1ccc(F)c(F)c1)N(C(=O)NCCCN1CCC(c3ccccn3)CC1)C(=O)N2 (single isomer, unassigned; (+)) [Compound 8]
(Q) Of the two listed items, I and II , which carries the larger Ki figure? Lab note: record the label of whichever item you select.
(A) I
(I: 4.2 µM, II: 1.5 µM)
